# method-description: Rodent brain penetration study
# Type: in vivo, Male Wistar rats
# protocol-conditions: male, Wistar, brain and plasma, po; rat, 3 mg/kg, p.o., brain-plasma ratio; read-out: Single dose Rat Brain Penetration (Cb/Cp) at 3 mg/kg, p.o.
measured-attribute: Kp
Lab note: record just the number, no unit beside it.

Input O=C(N[C@H]1CCCC[C@@H]1O)c1cc(Cc2ccc(F)cc2)c2c(n1)OCCO2 [Example 103] . Output Kp: 0.63

Input CN1CCOc2c(Cc3ccc(F)cc3)cc(C(=O)N[C@@H]3CCOC[C@H]3O)nc21 (single isomer, unassigned; isomer-ii) [Example 124] . Output Kp: 0.52

Input Cn1ccc2c(Cc3ccnc(F)c3)cc(C(=O)N[C@H]3CCCC[C@@H]3O)nc21 [Example 1] . Output Kp: 0.33

Input CN1CCOc2c(Cc3ccc(F)cc3)cc(C(=O)N[C@H]3CCCC[C@@H]3O)nc21 [Example 120] . Output Kp: 1.37
